MALT1 (Homo sapiens) IC50, compiled from various sources.
Observation type: IC50 (nM)

Example compounds with recorded IC50:
Compound	Measure unit	IC50
C[C@H](O)c1nccc2c(-n3ncc(C(=O)Nc4cnc(-n5nccn5)c(Cl)c4)c3C(F)(F)F)cccc12 (single isomer, unassigned)	nM	79
Cc1c(-n2ncc(C(=O)Nc3cnc(-n4nccn4)c(Cl)c3)c2C(F)(F)F)ccnc1Cl	nM	257

a. CN1CCc2c1cccc2-n1ncc(C(=O)Nc2cnc(-n3nccn3)c(C#N)c2)c1C(F)(F)F
b. Cc1ccc(-n2ncc(C(=O)Nc3cnc(-n4nccn4)c(Cl)c3)c2C(F)(F)F)n2ccnc12
Input line: Determine, for a and b , which has the greater value of IC50. // respond with label for picked entry
Output line: a
